# experiment: Cytotoxicity assay (CellTiter-Glo, 72 h), Jurkat
# Format: cell-based
# measurement-context: human, Jurkat cells (T lymphoma), conc 0.012207 uM, raw data (replicates)
readout-kind: viability at 72 h, 0.012207 uM (%)
Reply with just the number (in %).

CO[C@H]1C[C@@H]2CC[C@@H](C)[C@@](O)(O2)C(=O)C(=O)N2CCCC[C@H]2C(=O)O[C@H]([C@H](C)C[C@@H]2CC[C@@H](O)[C@H](OC)C2)CC(=O)[C@H](C)/C=C(\C)[C@@H](O)[C@@H](OC)C(=O)[C@H](C)C[C@H](C)/C=C/C=C/C=C/1C [Compound 1, rapamycin, reference compound] = 28.3

Next compound, please.
For the compound COC1CC2CCC(C)C(O)(O2)C(=O)C(=O)N2CCCCC2C(=O)OC(C(C)CC2CCC(O)C(OC)C2)CC(=O)C(C)C=C(C)C(O)C(OC)C(=O)C(C)CC(C)C=CCCC=C1C (centres unmarked) [Compound 15, 19,20-dihidro-rapamycin] , give its reported viability at 72 h, 0.012207 uM.
95.5

* * *

# experiment: Cytotoxicity assay (CellTiter-Glo, 72 h), MESO-1
# Format: cell-based
# measurement-context: human, MESO-1 malignant pleural mesothelioma cells, conc 0.0488281 uM; raw replicate data; read-out: MESO1 viability (%)
readout-kind: viability at 72 h, 0.0488281 uM (%)
Reply with just the number (in %).

Known results for compounds:
CO[C@@H]1C[C@H](C[C@@H](C)[C@@H]2CC(=O)[C@H](C)/C=C(\C)[C@@H](O)[C@@H](OC)C(=O)[C@H](C)C[C@H](C)/C=C/C=C/C=C(\C)[C@H](O)C[C@@H]3CC[C@@H](C)[C@@](O)(O3)C(=O)C(=O)N3CCCC[C@H]3C(=O)O2)CC[C@H]1O [Compound 17, (16R)-16-O-demethyl rapamycin] = 85.1
CO[C@H]1C[C@@H]2CC[C@@H](C)[C@@](O)(O2)C(=O)C(=O)N2CCCC[C@H]2C(=O)O[C@H]([C@H](C)C[C@@H]2CC[C@@H](O)[C@H](OC)C2)CC(=O)[C@H](C)/C=C(\C)[C@@H](O)CC(=O)[C@H](C)C[C@H](C)/C=C/C=C(C)/C=C/1C [Compound 2, 27-demethoxy-19-methyl rapamycin] = 102
CO[C@H]1C[C@@H]2CC[C@@H](C)[C@@](O)(O2)C(=O)C(=O)N2CCCC[C@H]2C(=O)O[C@H]([C@H](C)C[C@@H]2CC[C@@H](O)[C@H](OC)C2)CC(=O)[C@H](C)/C=C(\C)[C@@H](O)CC[C@H](C)/C=C/C=C/C=C/1C [Compound 7] = 80.8
CO[C@H]1C[C@@H]2CC[C@@H](C)[C@@](O)(O2)C(=O)C(=O)N2CCCC[C@H]2C(=O)O[C@H]([C@H](C)C[C@@H]2CC[C@@H](O)[C@H](OC)C2)CC(=O)[C@H](C)/C=C(\C)[C@@H](O)[C@@H](OC)C(=O)[C@H](C)C[C@H](C)/C=C/C=C/C=C/1C [Compound 1, rapamycin, reference compound] = 75

Next compound, please.
For the compound COC1CC2CCC(C)C(O)(O2)C(=O)C(=O)N2CCCCC2C(=O)OC(C(C)CC2CCC(O)C(OC)C2)CC(=O)C(C)C=C(C)C(O)C(OC)C(=O)C(C)CC(C)C=CCCC=C1C (centres unmarked) [Compound 15, 19,20-dihidro-rapamycin] , give its reported viability at 72 h, 0.0488281 uM.
82.9

* * *

Some compounds, each annotated with its measured viability at 72 h, 0.0488281 uM.
# experiment: Cytotoxicity assay (CellTiter-Glo, 72 h), Jurkat
# Format: cell-based
# measurement-context: human, Jurkat cells (T lymphoma), conc 0.0488281 uM, raw data (replicates)
Reply with just the number (in %).

For the compound CO[C@@H]1C[C@H](C[C@@H](C)[C@@H]2CC(=O)[C@H](C)/C=C(\C)[C@@H](O)[C@@H](OC)C(=O)[C@H](C)C[C@H](C)/C=C/C=C/C=C(\C)[C@H](O)C[C@@H]3CC[C@@H](C)[C@@](O)(O3)C(=O)C(=O)N3CCCC[C@H]3C(=O)O2)CC[C@H]1O [Compound 17, (16R)-16-O-demethyl rapamycin] , give its reported viability at 72 h, 0.0488281 uM.
40

For the compound COC1CC2CCC(C)C(O)(O2)C(=O)C(=O)N2CCCCC2C(=O)OC(C(C)CC2CCC(O)C(OC)C2)CC(=O)C(C)C=C(C)C(O)CC(=O)C(C)C=C(C)C=CC=CC=C1C (centres unmarked) , give its reported viability at 72 h, 0.0488281 uM.
101

* * *

Some compounds, each annotated with its measured viability at 72 h, 0.78125 uM.
# experiment: Cytotoxicity assay (CellTiter-Glo, 72 h), MESO-1
# Format: cell-based
# measurement-context: human, MESO-1 malignant pleural mesothelioma cells, conc 0.78125 uM; raw replicate data; read-out: MESO1 viability (%)
Reply with just the number (in %).

COC1CC2CCC(C)C(O)(O2)C(=O)C(=O)N2CCCCC2C(=O)OC(C(C)CC2CCC(O)C(OC)C2)CC(=O)C(C)C=C(C)C(O)CC(=O)C(C)C=C(C)C=CC=CC=C1C (centres unmarked) = 79
CO[C@H]1C[C@@H]2CC[C@@H](C)[C@@](O)(O2)C(=O)C(=O)N2CCCC[C@H]2C(=O)O[C@H]([C@H](C)C[C@@H]2CC[C@@H](O)[C@H](OC)C2)CC(=O)[C@H](C)/C=C(\C)[C@@H](O)[C@@H](OC)C(=O)[C@H](C)C[C@H](C)/C=C/C=C/C=C/1C [Compound 1, rapamycin, reference compound] = 68.5
CO[C@@H]1/C=C/C=C/[C@@H](C)C[C@@H](C)C(=O)C[C@H](O)/C(C)=C/[C@@H](C)C(=O)C[C@@H]([C@H](C)C[C@@H]2CC[C@@H](O)[C@H](OC)C2)OC(=O)[C@@H]2CCCCN2C(=O)C(=O)[C@]2(O)O[C@@H](CC[C@H]2C)C1 = 66.3
CO[C@@H]1C[C@H](C[C@@H](C)[C@@H]2CC(=O)[C@H](C)/C=C(\C)[C@@H](O)[C@@H](OC)C(=O)[C@H](C)C[C@H](C)/C=C/C=C/C=C(\C)[C@H](O)C[C@@H]3CC[C@@H](C)[C@@](O)(O3)C(=O)C(=O)N3CCCC[C@H]3C(=O)O2)CC[C@H]1O [Compound 17, (16R)-16-O-demethyl rapamycin] = 73.1

Next compound, please.
For the compound CO[C@H]1C[C@@H]2CC[C@@H](C)[C@@](O)(O2)C(=O)C(=O)N2CCCC[C@H]2C(=O)O[C@H]([C@H](C)C[C@@H]2CC[C@@H](O)[C@H](OC)C2)CC(=O)[C@H](C)/C=C(\C)[C@@H](O)CC(=O)[C@H](C)C[C@H](C)/C=C/C=C(C)/C=C/1C , give its reported viability at 72 h, 0.78125 uM.
93.3

* * *

# experiment: Cytotoxicity assay (CellTiter-Glo, 72 h), Jurkat
# Format: cell-based
# measurement-context: human, Jurkat cells (T lymphoma), conc 0.78125 uM, raw data (replicates)
Some compounds, each annotated with its measured viability at 72 h, 0.78125 uM.
Reply with just the number (in %).

Known results for compounds:
COC1CC2CCC(C)C(O)(O2)C(=O)C(=O)N2CCCCC2C(=O)OC(C(C)CC2CCC(O)C(OC)C2)CC(=O)C(C)C=C(C)C(O)C(OC)C(=O)C(C)CC(C)C=CCCC=C1C (stereo not shown) = 43.6
COC1CC2CCC(C)C(O)(O2)C(=O)C(=O)N2CCCCC2C(=O)OC(C(C)CC2CCC(O)C(OC)C2)CC(=O)C(C)C=C(C)C(O)CC(=O)C(C)C=C(C)C=CC=CC=C1C (stereo not shown) = 78.6
COC1CC2CCC(C)C(O)(O2)C(=O)C(=O)N2CCCCC2C(=O)OC(C(C)CC2CCC(O)C(OC)C2)CC(O)CC(=O)C(C)C=C(C)C(O)CC(=O)C(C)CC(C)C=CC=CC=C1C (stereo not shown) = 31.7

For the compound CO[C@@H]1C[C@H](C[C@@H](C)[C@@H]2CC(=O)[C@H](C)/C=C(\C)[C@@H](O)[C@@H](OC)C(=O)[C@H](C)C[C@H](C)/C=C/C=C/C=C(\C)[C@H](O)C[C@@H]3CC[C@@H](C)[C@@](O)(O3)C(=O)C(=O)N3CCCC[C@H]3C(=O)O2)CC[C@H]1O [Compound 17, (16R)-16-O-demethyl rapamycin] , give its reported viability at 72 h, 0.78125 uM.
32.4

* * *

# experiment: Cytotoxicity assay (CellTiter-Glo, 72 h), SKOV-3
# Assay type: cell-based, human
# measurement-context: human, SKOV-3 cells (ovarian adenocarcinoma), conc 50 uM; raw replicate data; read-out: SKOV3 viability (%)
Some molecules, each annotated with its measured viability at 72 h, 50 uM.
Reply with just the number (in %).

Known results for molecules:
COC1CC2CCC(C)C(O)(O2)C(=O)C(=O)N2CCCCC2C(=O)OC(C(C)CC2CCC(O)C(OC)C2)CCC(C)C=C(C)C(O)C(OC)C(=O)C(C)CC(C)C=CC=CC=C1C (centres unmarked) [Compound 16, 32-desketorapamycin] = 39.9
CO[C@H]1C[C@@H]2CC[C@@H](C)[C@@](O)(O2)C(=O)C(=O)N2CCCC[C@H]2C(=O)O[C@H]([C@H](C)C[C@@H]2CC[C@@H](O)[C@H](OC)C2)CC(=O)[C@H](C)/C=C(\C)[C@@H](O)CC[C@H](C)/C=C/C=C/C=C/1C [Compound 7] = 6.6
COC1CC2CCC(C)C(O)(O2)C(=O)C(=O)N2CCCCC2C(=O)OC(C(C)CC2CCC(O)C(OC)C2)CC(=O)C(C)C=C(C)C(O)C(OC)C(=O)C(C)CC(C)C=CCCC=C1C (centres unmarked) [Compound 15, 19,20-dihidro-rapamycin] = 4
COC1CC2CCC(C)C(O)(O2)C(=O)C(=O)N2CCCCC2C(=O)OC(C(C)CC2CCC(O)C(OC)C2)CC(=O)C(C)C=C(C)C(O)CC(=O)C(C)C=C(C)C=CC=CC=C1C (centres unmarked) [Compound 14] = 60.7

Next molecule, please.
For the molecule COC1CC2CCC(C)C(O)(O2)C(=O)C(=O)N2CCCCC2C(=O)OC(C(C)CC2CCC(O)C(OC)C2)CC(O)CC(=O)C(C)C=C(C)C(O)CC(=O)C(C)CC(C)C=CC=CC=C1C (centres unmarked) [Compound 13] , give its reported viability at 72 h, 50 uM.
61.1
